Tested on: SEM cells
Assay: cell viability relative to DMSO control; higher = less cytotoxic
Conditions: RPMI 5 mM glucose + 10% FBS; 48 h; 1.71 µM
ASSAY ENDPOINT: cell viability

Reference set (3 entries):
>>> recorded_value("O=C(O)C1=NC(C(=O)O)CC(/C=C/N2c3cc(O)c(OC4OC(CO)C(O)C(O)C4O)cc3CC2C(=O)O)=C1 (stereo unspecified)")
"102%"
>>> recorded_value("O=C(O[C@H]1C[C@H]2CC[C@@H](C1)[N+]21CCCC1)C(O)(c1ccccc1)c1ccccc1.[Cl-]")
"127%"
>>> recorded_value("Cc1ccc([S+](=O)([O-])N[C@@H](Cc2ccccc2)C(=O)CCl)cc1")
"108%"

Request: I'd like to know its cell viability. The compound in question is `CN(C)[C@H]\1[C@@H]2C[C@H]3C(=C(O)\[C@]2(O)C(=O)\C(=C1O)C(N)=O)/C(=O)C4=C(O)C=CC=C4[C@@]3(C)O`
Result: 96.8%

Request: I'd like to know its cell viability. The compound in question is `C[C@@H]1CC[C@H]2[C@@H](C)C(=O)O[C@@H]3O[C@@]4(C)CC[C@@H]1[C@]32OO4`
Result: 87.6%

Request: I'd like to know its cell viability. The compound in question is `C=C[C@H]1CN2CC[C@H]1C[C@H]2[C@H](O)c1ccnc2ccc(OC)cc12`
Result: 90.7%

Origin of the recorded values: the supplement of paper PMC11451515
